- TARGET_SYSTEM: T1, human Claudin18.2 (human)
- T1 construct: also called CLDN18.2
- ASSAY_NAME: cell ELISA, Claudin18.2-expressing HEK293T cells
PROPERTY_NAME: EC50 (nM)

BINDER	UNITS	QUANTITATIVE_RESULT
421H4G3 (antibody, V domains shown, mouse hybridoma mAb) VH: DVQLVESGGGLVQPGGSRKLSCAASGFSFSGFGLHWIRQTPEKGLEWVAYISSGSRPIYYADTVKGRFTISRDNPKNTLFLQMTSLRSEDTAMYFCARFYFGNSFDHWGQGTLVTVST VL: DIVMTQSPSFLTVTAGEKVTMSCRSSQSLLNSGNQRNYLTWYQQKPGQPPKLLIYWASTRESGVPDRFTGSGSGTDFTLTINSVQAEDLALYYCQNAYSFPLTFGAGTKLELK	nM	2.47
248G8E8 (antibody, V domains shown, mouse hybridoma mAb) VH: QVQLKESGPGLVAPSQSLSITCTVSGFSLTTYGVSWVRQPPGKGLEWLGVIWGDGSTNYHSTLISRLRISKDKSKSQVFLKLNSLQTDDTATYYCAKAGRGNALDYWGQGTSVTVSS VL: DIVLTQSPSSLTVTAGEKVTMSCKSSQSLLNSGNQKNYLTWYQQKPGQPPKLLIYWASTRESGVPDRFTGSGSGTDFTLTISSVQAEDLAVYYCQNDYSFPLTFGAGTKLELK	nM	0.56
239H12G9 (antibody, V domains shown, mouse hybridoma mAb) VH: QAYLQQSGAELVRSGASVKMSCKASGYTFTSHNIHWVKQTPGQGLEWIGYIYPGNGAPNYNQKFRGKATLTADTSSSTAYMQISSLTSEDSAVYFCARDYYGNSFVYWGQGTLVTVSA VL: DIVMTQSPSSLTEKAGEKVSMSCKSSQSLLNSGNQKNYLTWYQQKPGQPPKLLIYWASTRESGVPDRFTGSGSGTDFTLTISSVQAEDLAVYYCQNDYRYPFTFGAGTKLELK	nM	0.732
207F8G5 (antibody, V domains shown, mouse hybridoma mAb) VH: QAYLQQSGAELVRSGASVKMSCKASGFTFTSYNIHWVKQTPGQGLEWIGYISPGNGGSNYNLKFKDKATLTSATSSSTAYMQISSLTSEDSAVYFCATGRGFAYWGQGTLVTVSA VL: DIVMTQSPSSLTVTPGEKVTMSCKSSQSLFNSGNQKNYLIWYQQKPGQPPKLLIYRASTRDSGVPDRFTGSGSGTDFTLTISNVQAEDLAIYYCQNDYSYPLTFGAGTKLELK	nM	0.822

Provenance of the data: patent US20220073643A1
